METHOD_SUMMARY: Cmax in Wistar rat at 22 umol/kg, po measured upto 24 hrs by LC-MS/MS analysis
Type: ADME, organism-based
Design: dose 22 umol/kg, route oral
REPORTED_CONDITIONS: in vivo
QUANTITY: Cmax (ng/mL)
Kindly answer with a numeric value in ng/mL, unit omitted.

Guide cases for Cmax, answers given:
| MOL | QUANTITY | UNIT_LABEL | DATA_VALUE |
| --- | --- | --- | --- |
| CCOC(=O)[C@]1(C)CCC[C@@]2(C)[C@@H]3CC[C@@]4(C)C[C@]3(CC[C@@H]21)C/C4=N\OCc1ccsc1 | Cmax | ng/mL | 1250 |
| O=C(NC[C@H]1CN(c2ccc(N3CCOCC3=O)cc2)C(=O)O1)c1ccc(Cl)s1 | Cmax | ng/mL | 1580 |

Task item: Please give the measured Cmax for this molecule: CCOC(=O)[C@]1(C)CCC[C@@]2(C)[C@@H]3CC[C@@]4(C)C[C@]3(CC[C@@H]21)C/C4=N\OCC1(C)COC1
Reply: 728
